The values you see were collected from patent US11207312B2.

System: Serratia marcescens expressing IMP-1 (CL5741)
Format: cell-based
Conditions: with imipenem 1 μg/ml; 95% inhibition of bacterial growth

Compound | CL5741 S. marcescens MITC95 IMP / µM
NS(=O)(=O)c1c(S(=O)(=O)N[C@@H]2CCNC2)ccc(N2CCC(CO)CC2)c1-c1nnn[nH]1 | 1.56
NC1CCN(c2ccc(S(=O)(=O)N[C@@H]3CCNC3)c(S(N)(=O)=O)c2-c2nn[nH]n2)C(=O)C1 (stereo partly shown) | 1.56
NCC1CCN(c2ccc(S(=O)(=O)NC[C@@H](N)CN)c(S(N)(=O)=O)c2-c2nn[nH]n2)CC1 | 1.56
NCC1CCN(c2ccc(S(=O)(=O)N[C@@H]3CCNC3)c(S(N)(=O)=O)c2-c2nn[nH]n2)CCN1 (stereo partly shown) | 1.56
NC[C@@H]1CCCN(c2ccc(S(=O)(=O)N[C@@H]3CCNC3)c(S(N)(=O)=O)c2-c2nnn[nH]2)C1 | 1.56
NS(=O)(=O)c1c(S(=O)(=O)N[C@@H]2CCNC2)ccc(N2CC[C@@H](O)C2)c1-c1nnn[nH]1 | 3.13
NC[C@@H](O)CNS(=O)(=O)c1ccc(N2CCC(CC(N)=O)CC2)c(-c2nn[nH]n2)c1S(N)(=O)=O | 6.25
